The measurements presented in this section are drawn from patent US7879858B2.

TARGET_OR_SYSTEM: Serotonin reuptake (Rattus norvegicus, UniProt P31652)
Construct: synaptosomes are freshly isolated from areas of the rat brain; from tissue; host or cells: rat brain synaptosomes (P2 fraction)
Sequence (P31652 whole entry): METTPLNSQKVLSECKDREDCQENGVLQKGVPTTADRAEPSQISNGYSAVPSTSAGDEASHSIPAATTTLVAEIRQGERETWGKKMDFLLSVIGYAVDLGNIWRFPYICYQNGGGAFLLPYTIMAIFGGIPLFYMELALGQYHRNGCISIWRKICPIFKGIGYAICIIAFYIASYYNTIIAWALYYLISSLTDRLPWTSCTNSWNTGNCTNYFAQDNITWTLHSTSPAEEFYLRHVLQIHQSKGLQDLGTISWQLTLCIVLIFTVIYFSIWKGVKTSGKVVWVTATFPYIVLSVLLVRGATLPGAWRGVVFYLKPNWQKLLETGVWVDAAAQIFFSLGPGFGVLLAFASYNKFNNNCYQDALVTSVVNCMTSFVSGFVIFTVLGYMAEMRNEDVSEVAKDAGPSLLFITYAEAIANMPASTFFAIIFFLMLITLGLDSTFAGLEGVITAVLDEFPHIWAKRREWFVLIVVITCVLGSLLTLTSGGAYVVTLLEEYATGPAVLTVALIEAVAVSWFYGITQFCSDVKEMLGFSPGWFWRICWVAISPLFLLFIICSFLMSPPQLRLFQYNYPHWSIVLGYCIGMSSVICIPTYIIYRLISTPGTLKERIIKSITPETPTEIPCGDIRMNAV
EXPERIMENT_SUMMARY: Inhibition of 5HT (serotonin) uptake in rat brain synaptosomes
Type: biochemical
CONDITION_SUMMARY: 10 μmol; synaptosomes from rat brain
Please mark MET if the recorded inhibition at 10 µM is equal to or greater than 40%, and NOT MET if it falls below.

Entry O=C(C1CCC1)N1CCn2cccc2C1c1ccc(Cl)c(Cl)c1 (centres unmarked) : is its inhibition at 10 µM no less than 40%?
MET

State whether the measured inhibition at 10 µM reaches 40%, counting equality as reaching it, for O=C(c1ccco1)N1CCn2cccc2C1c1ccccc1 (centres unmarked)
NOT MET

Has O=C(C1CCC1)N1CCn2cccc2C1c1ccc(F)cc1 (centres unmarked) a recorded inhibition at 10 µM greater than or equal to 40%?
NOT MET

Is reported inhibition at 10 µM greater than or equal to 40% here: O=C(c1cccc(F)c1)N1CCn2cccc2C1c1cccc(Cl)c1 (centres unmarked)
MET

Could you verify whether the entry Cc1ccccc1C(=O)N1CCn2cccc2C1c1ccc(F)cc1 (centres unmarked) shows inhibition at 10 µM of no less than 40%?
NOT MET

Identify whether the reported inhibition at 10 µM of the following compound is 40% or greater: COc1ccccc1C1c2cccn2CCN1C(=O)c1ccc2c(c1)OCO2 (centres unmarked)
MET

Could you please find out whether O=C(c1ccc2c(c1)OCO2)N1CCn2cccc2C1c1ccccc1F (centres unmarked) has inhibition at 10 µM that meets 40% or exceeds it?
NOT MET

Dear colleague, could you confirm whether O=C(c1cccs1)N1CCn2cccc2C1c1cccc(Cl)c1 (centres unmarked) has inhibition at 10 µM at or above 40%?
MET
